# Test system: T1, UNK ZnF1-3 (human, UniProt Q9C0B0 31-174)
# T1 sequence: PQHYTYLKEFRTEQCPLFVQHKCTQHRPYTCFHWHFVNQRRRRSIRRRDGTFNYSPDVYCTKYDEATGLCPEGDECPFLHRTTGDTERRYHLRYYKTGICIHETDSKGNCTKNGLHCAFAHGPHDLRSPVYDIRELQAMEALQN
# Method description: nsRBNS (natural sequence RNA bind-n-seq); RBNS binding buffer (assumed for nsRBNS): 25 mM Tris pH 7.5, 150 mM KCl, 3 mM MgCl2, 0.01% Triton X-100, 500 ug/ml BSA, 20 U/ml SUPERase-In, 4 C; UNK is unkempt and MSI1 is Musashi-1; names of the RNAs are library labels; protein concentration not given here; high values mean tight binding
In all, about 24,000 sequences were measured (“enrichment r”: median about 0.99, highest 2% from about 3.7 on). Shown is part of a subset that was picked to be rich in the highest values.
Quantity kind: binding signal (enrichment R)
Express it in enrichment R; write the number only.

QUERY: // lookup binding signal for chr11:46405157:46405158:+_ENSG00000110492_ENST00000395566|hu_hu|hu_hu_hu_mus_False|18_108 (ssRNA) RNA: GGGAGUUCUACAGUCCGACGAUCCCCUUAGGGGUGGGGGCACUUGGUGUGGGCGUGAGAGGACAGGCGUGAUUGACAGAGCUGACAGGAAGACAAAAGGCACUGGUGGGUUAUAUCUCGGGCCUGGGGGAGAGGAGGGCUCCGCAACAGAGGAUUGAGCAUCA
RESULT: 4.17

QUERY: Another binder: chr11:46405157:46405158:+_ENSG00000110492_ENST00000395566|hu_hu|hu_hu_hu_mus_False|1_18 (ssRNA) RNA: GGGAGUUCUACAGUCCGACGAUCCCCUCCCCACUUUGGGCACUUGGUGUGGGCGUGAGAGGACAGGCGUGAUUGACAGAGCUGACAGGAAGACAAAAGGCACUGGUGGGUUAUAUCUCGGGCCUGGGGGAGAGGAGGCGUGGGCAACAGAGGAUUGAGCAUCA
RESULT: 3.4

QUERY: Repeat for the following binder: chr11:46405157:46405158:+_ENSG00000110492_ENST00000395566|hu_hu|hu_hu_hu_mus_False|18_28 (ssRNA) RNA: GGGAGUUCUACAGUCCGACGAUCCCCUCCCCACUUUGGGCACUUGGUGUGGGCGUGAGAGGACAGGCGUGAUUGACAGAGCUGACAGGAAGACAAAAGGCACUGGUGGGUCACAUCUCGGGCCUGGGGGAGAGGAGGGCUCCGCAACAGAGGAUUGAGCAUCA
RESULT: 3.48

QUERY: Now the same for chr22:19452774:19452775:-_ENSG00000070010_ENST00000399523|hu_hu|hu_hu_hu_mus_False|28_58 (ssRNA) RNA: GGGAGUUCUACAGUCCGACGAUCCUUCUCAUUGUAGUUGAUAGCAAUCACAUCUCCAGUCGUCAGACAGGCGAAGUUCCUAAGUGCAUUUUCUAAUACCGCUUUAGGGUUGGUGAUAUCCAGGAAGUCUGGGCUCUGAGGCUGCAACAGAGGAUUGAGCAUCA
RESULT: 0.837

QUERY: Param item: chr11:46405157:46405158:+_ENSG00000110492_ENST00000395566|hu_hu|hu_hu_hu_mus_False|58_108 (ssRNA) RNA: GGGAGUUCUACAGUCCGACGAUCCCCUUAGGGGUGGGGGCACUUGGUGUGGGCGUGAGAGGACAGGCGUGAUUGACAAAGCUAACGGGAAGACAAAAGGCACUGGUGGGUUAUAUCUUGGGCCUGUGGGAGAGGAGGGCUCCGCAACAGAGGAUUGAGCAUCA
RESULT: 3.45

QUERY: Let us now turn to 19988787_19988907_277_5pUTR_ENSG00000144566_ENST00000273047|human|control|control (ssRNA) RNA: GGGAGUUCUACAGUCCGACGAUCCGGCGUCGCCUGCUCUUAGCGCCGCUCCCCUCACACUGGACUGUGCGGGGCUCGUGCCGUGGUGCCGCCCCUGUCGGGCUCCGUCUCCGCCUCUCGCCGCUCCCCCUUCCUCUUUCCUUUCAACAGAGGAUUGAGCAUCA
RESULT: 0.72

QUERY: Same for chr8:26941818:26941819:-_ENSMUSG00000031575_ENSMUST00000166078|mus_mus|FALSE|FALSE (ssRNA) RNA: GGGAGUUCUACAGUCCGACGAUCACUAGCAGACACAGCACUGCUUUGUUUCUGGUUGUCAUAAGCAGGACCAAUAUUACUAAGAUCCUGAUCCAAAAGUCCAAACUUGGGGUAAUCUUCUUCUGGGUCUUUGCUUCCUGGGUCCAACAGAGGAUUGAGCAUCA
RESULT: 0.761
